tgt: NAD-dependent deacetylase Sirtuin 1 (human)
methodDescription: primary screen, delta tm
Set-up: single well (n = 1, as 'the same TSA')
experimentalSetup: 10 µM
Procedure: A total of 3,192 compounds extracted from the proposed lists were first screened by thermal shift assay (TSA), which determined a melting temperature shift (ΔTm) of Sirtuin 1 upon the addition of a test compound at a concentration of 10 µM (n = 1) with primary hit criteria of ΔTm > 0.45 K or ΔTm < −1.5 K. Primary hits (48 compounds) were retested in the same assay at three concentrations (5, 10, 20 µM, n = 4) for hit confirmation and for dose-dependency check. […]
Whole data set: some 3,200 compounds, median “TSA(with NAD+) / Primary screening (TSA) / delta Tm (K)” near -0.04, cut for the highest 2% near 0.37. The entries come from a sample that favours the highest values as a whole.
Attribute: TSA(with NAD+) / Primary screening (TSA) / delta Tm (K)
measuredEndpoint: TSA(with NAD+) / Primary screening (TSA) / delta Tm (K)

{"molecule": "Cc1ccccc1CNC(=O)CSc1nc2ccsc2c(=O)n1C", "uom": "K", "valueMeasured": -0.22}
{"molecule": "O=C1NC(=S)NC(=O)C1=Cc1cn(-c2ccccc2)nc1-c1cc2ccccc2oc1=O", "uom": "K", "valueMeasured": -0.05}
{"molecule": "O=S(=O)(c1ccc(C(F)(F)F)cc1)N1CCNCC1", "uom": "K", "valueMeasured": 0.03}
{"molecule": "O=C1NC(=S)NC(=O)C1=Cc1cn(-c2ccccc2)nc1-c1cc2ccccc2o1", "uom": "K", "valueMeasured": 0.56}
{"molecule": "CCSC1CCC(NC(=O)Cc2cnc3ccccc3c2)C1 (centres unmarked)", "uom": "K", "valueMeasured": -0.11}

###

tgt: NAD-dependent deacetylase Sirtuin 1 (human, UniProt Q96EB6)
Sequence (Q96EB6 2-747 limits assumed): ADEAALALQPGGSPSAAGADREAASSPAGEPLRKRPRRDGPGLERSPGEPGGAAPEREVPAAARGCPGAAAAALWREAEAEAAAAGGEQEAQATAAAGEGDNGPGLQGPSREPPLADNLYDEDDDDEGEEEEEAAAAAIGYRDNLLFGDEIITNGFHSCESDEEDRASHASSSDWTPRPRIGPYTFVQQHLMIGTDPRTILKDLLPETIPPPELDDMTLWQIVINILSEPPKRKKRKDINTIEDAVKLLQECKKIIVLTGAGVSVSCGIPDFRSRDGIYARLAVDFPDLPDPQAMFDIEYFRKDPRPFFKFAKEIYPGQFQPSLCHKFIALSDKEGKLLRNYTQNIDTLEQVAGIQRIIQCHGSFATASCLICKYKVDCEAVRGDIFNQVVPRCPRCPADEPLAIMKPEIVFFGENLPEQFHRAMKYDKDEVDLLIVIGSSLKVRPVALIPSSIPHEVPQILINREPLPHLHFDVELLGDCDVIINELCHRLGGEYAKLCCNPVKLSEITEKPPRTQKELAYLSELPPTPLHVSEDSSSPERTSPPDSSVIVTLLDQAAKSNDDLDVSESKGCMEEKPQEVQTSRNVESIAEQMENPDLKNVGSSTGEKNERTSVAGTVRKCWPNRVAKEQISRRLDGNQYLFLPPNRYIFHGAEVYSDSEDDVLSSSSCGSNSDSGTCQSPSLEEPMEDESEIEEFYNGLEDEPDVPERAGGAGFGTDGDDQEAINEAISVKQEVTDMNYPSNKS
methodDescription: primary screen, delta tm
Parameters: single well (n = 1, as 'the same TSA')
experimentalSetup: 10 µM
The full ranking holds about 3,200 compounds; the median of “TSA(with NAD+) / Primary screening (TSA) / delta Tm (K)” is about -0.04, and the highest 2% start at about 0.37. Many of the other results were omitted from the sample, so the highest values are more common in it than they were.
measuredEndpoint: TSA(with NAD+) / Primary screening (TSA) / delta Tm (K)

{"compound": "NC(=O)C1CCCN(c2ncnc3sc4c(c23)CCCC4)C1 (stereo not shown)", "valueMeasured": -0.15}
{"compound": "NC(=O)C1CCN(c2ncnc3sc4c(c23)CCCCC4)CC1", "valueMeasured": 0.26}
{"compound": "O=C(CN1CCCCCCC1=O)NCCc1nc2ccccc2[nH]1", "valueMeasured": -0.22}
{"compound": "CCn1nnc2cc(C(=O)N3CCN(C(c4ccc(F)cc4)c4ccc(F)cc4)CC3)ccc21", "valueMeasured": -0.22}
{"compound": "Cc1sc2nc(-c3cccs3)nc(N3CCC(C(N)=O)CC3)c2c1C", "valueMeasured": 0.53}
{"compound": "NC(=O)C1CCN(c2ncnc3sc4c(c23)CCCC4)CC1", "valueMeasured": 0.32}
{"compound": "O=C1/C(=C/c2ccc(OC(F)F)cc2OC(F)F)Oc2cc(O)ccc21", "valueMeasured": 0.37}
{"compound": "O=c1cc(CSc2ncc(C(F)(F)F)cc2Cl)nc2ccccn12", "valueMeasured": -0.23}
{"compound": "Cc1sc2nc(-c3cccnc3)nc(N3CCC(C(N)=O)CC3)c2c1C", "valueMeasured": -0.01}
{"compound": "CC1(C)NC(=O)N(CC(=O)Nc2sc3c(c2-c2nc4ccccc4[nH]2)CCCC3)C1=O", "valueMeasured": 0.37}
